Hello, the source for this data is patent US20260109712A1, in case you need it.

test system: CYP3A4; conditions: human, 10 μM
ENDPOINT NAME: CYP3A4 gene fold-induction at 10 μM

CHEMICAL STRING	MEASURED ON	MEASURED RESULT
CO[C@H]1/C=C/O[C@@]2(C)Oc3c(C)c(O)c4c(c3C2=O)C2=NC3(CCN(CC(C)C)CC3)NC2=C(NC(=O)/C(C)=C/C=C/[C@H](C)[C@H](O)[C@@H](C)[C@@H](O)[C@@H](C)[C@H](OC(=O)Nc2ccn3nccc3c2)[C@@H]1C)C4=O	CYP3A4	1.2

State the recorded CYP3A4 gene fold-induction at 10 μM for every item in the following list.
1. CO[C@H]1/C=C/O[C@@]2(C)Oc3c(C)c(O)c4c(c3C2=O)C2=NC3(CCN(CC(C)C)CC3)NC2=C(NC(=O)/C(C)=C/C=C/[C@H](C)[C@H](O)[C@@H](C)[C@@H](O)[C@@H](C)[C@H](OC(=O)Nc2cscn2)[C@@H]1C)C4=O
2. CO[C@H]1/C=C/O[C@@]2(C)Oc3c(C)c(O)c4c(c3C2=O)C2=NC3(CCN(CC(C)C)CC3)NC2=C(NC(=O)/C(C)=C/C=C/[C@H](C)[C@H](O)[C@@H](C)[C@@H](O)[C@@H](C)[C@H](OC(=O)Nc2ccncn2)[C@@H]1C)C4=O
3. CO[C@H]1/C=C/O[C@@]2(C)Oc3c(C)c(O)c4c(c3C2=O)C2=NC3(CCN(CC(C)C)CC3)NC2=C(NC(=O)/C(C)=C/C=C/[C@H](C)[C@H](O)[C@@H](C)[C@@H](O)[C@@H](C)[C@H](OC(=O)Nc2cncs2)[C@@H]1C)C4=O
4. CO[C@H]1/C=C/O[C@@]2(C)Oc3c(C)c(O)c4c(c3C2=O)C2=NC3(CCN(CC(C)C)CC3)NC2=C(NC(=O)/C(C)=C/C=C/[C@H](C)[C@H](O)[C@@H](C)[C@@H](O)[C@@H](C)[C@H](OC(=O)c2cccnc2)[C@@H]1C)C4=O
5. CO[C@H]1/C=C/O[C@@]2(C)Oc3c(C)c(O)c4c(c3C2=O)C2=NC3(CCN(CC(C)C)CC3)NC2=C(NC(=O)/C(C)=C/C=C/[C@H](C)[C@H](O)[C@@H](C)[C@@H](O)[C@@H](C)[C@H](OC(=O)Nc2cccnn2)[C@@H]1C)C4=O
6. CO[C@H]1/C=C/O[C@@]2(C)Oc3c(C)c(O)c4c(c3C2=O)C2=NC3(CCN(CC(C)C)CC3)NC2=C(NC(=O)/C(C)=C/C=C/[C@H](C)[C@H](O)[C@@H](C)[C@@H](O)[C@@H](C)[C@H](OC(=O)NC2CC(C)(C)NC(C)(C)C2)[C@@H]1C)C4=O

1.4
2.0
1.7
14.1
2.7
0.6

----------
assay: Mouse pharmacokinetics studies; type: in vivo, CD-1 mice; details: mouse, in vivo
Answer each item with its documented Vd.
Numbers only, in L/kg.

Sample records with Vd:
CHEMICAL STRING	UNIT OF MEASUREMENT	Vd
CO[C@H]1/C=C/O[C@@]2(C)Oc3c(C)c(O)c4c(c3C2=O)C2=NC3(CCN(CC(C)C)CC3)NC2=C(NC(=O)/C(C)=C/C=C/[C@H](C)[C@H](O)[C@@H](C)[C@@H](O)[C@@H](C)[C@H](OC(=O)Nc2nncs2)[C@@H]1C)C4=O	L/kg	1.14
CO[C@H]1/C=C/O[C@@]2(C)Oc3c(C)c(O)c4c(c3C2=O)C2=NC3(CCN(CC(C)C)CC3)NC2=C(NC(=O)/C(C)=C/C=C/[C@H](C)[C@H](O)[C@@H](C)[C@@H](O)[C@@H](C)[C@H](OC(=O)c2cscn2)[C@@H]1C)C4=O	L/kg	1.22
CO[C@H]1/C=C/O[C@@]2(C)Oc3c(C)c(O)c4c(c3C2=O)C2=NC3(CCN(CC(C)C)CC3)NC2=C(NC(=O)/C(C)=C/C=C/[C@H](C)[C@H](O)[C@@H](C)[C@@H](O)[C@@H](C)[C@H](OC(=O)Nc2ccccc2)[C@@H]1C)C4=O	L/kg	1.93
CO[C@H]1/C=C/O[C@@]2(C)Oc3c(C)c(O)c4c(c3C2=O)C2=NC3(CCN(CC(C)C)CC3)NC2=C(NC(=O)/C(C)=C/C=C/[C@H](C)[C@H](O)[C@@H](C)[C@@H](O)[C@@H](C)[C@H](OC(=O)NC2CCN(Cc3ccccc3)CC2)[C@@H]1C)C4=O	L/kg	5.92

Proceed to the following item.
So what does the record say about Vd for CO[C@H]1/C=C/O[C@@]2(C)Oc3c(C)c(O)c4c(c3C2=O)C2=NC3(CCN(CC(C)C)CC3)NC2=C(NC(=O)/C(C)=C/C=C/[C@H](C)[C@H](O)[C@@H](C)[C@@H](O)[C@@H](C)[C@H](OC(=O)Nc2ccncc2)[C@@H]1C)C4=O ?
3.78
